System: 292921-168-R-J2-PDC complex spheroid growth
Test: Anticancer human tumor 292921-168-R-J2-PDC patient-derived pancreatic carcinoma cell line growth inhibition [AhR]
Conditions: curve of first compound; second compound 1 µM
property_name: IC50 (µM)

1. CC1COCCN1c1cc(C2(S(C)(=N)=O)CC2)nc(-c2ccnc3[nH]ccc23)n1 (centres undefined) + Cc1ccccc1N=Nc1ccc(NC(=O)c2ccnn2C)c(C)c1
2. COc1ccc([C@@H](O)c2cc(-c3ncnc4cc(N5CCOCC5)ccc34)c(F)cc2Cl)nn1 + Cc1cncc(-c2nc(NCCc3c[nH]c4ccccc34)c3ncn(C(C)C)c3n2)c1
3. CC[C@@]1(O)C(=O)OCc2c1cc1n(c2=O)Cc2cc3c(CN(C)C)c(O)ccc3nc2-1 + Cc1cncc(-c2nc(NCCc3c[nH]c4ccccc34)c3ncn(C(C)C)c3n2)c1
*Q* Rank by IC50 (largest to smallest). To answer, arrange all of the labels according to the requested order.
*A* 1, 2, 3

###

Test system: 292921-168-R-J2-PDC complex spheroid growth
Test: Anticancer human tumor 292921-168-R-J2-PDC cell line growth inhibition [AhR];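 also: spheroids exposed to compounds for seven days after three days of growth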
Settings: curve of first compound; second compound 10 µM
pIC50: −log10 of the molar value.
property_name: pIC50

a. CC1COCCN1c1cc(C2(S(C)(=N)=O)CC2)nc(-c2ccnc3[nH]ccc23)n1 (stereo not drawn) + CC(CO)NC(=O)c1cc(-c2ccc(Cl)cc2)nn(-c2cnn(C)c2)c1=O
b. CCN(c1cc(-c2ccc(CN3CCOCC3)cc2)cc(C(=O)NCc2c(C)cc(C)[nH]c2=O)c1C)C1CCOCC1 + Cc1cncc(-c2nc(NCCc3c[nH]c4ccccc34)c3ncn(C(C)C)c3n2)c1
c. CC1COCCN1c1cc(-c2ccnn2C)c2ccnc(-c3ccn[nH]3)c2n1 (stereo not drawn) + Cc1ccccc1N=Nc1ccc(NC(=O)c2ccnn2C)c(C)c1
*Q* Sort ascending by pIC50. List each label, following the requested order.
*A* a, b, c
(a: 5.76, b: 7.47, c: 7.88)

###

System: 292921-168-R-J2-PDC complex spheroid growth
Assay: Anticancer human tumor 292921-168-R-J2-PDC cell line growth inhibition [AhR];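 also: spheroids exposed to compounds for seven days after three days of growth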
Settings: curve of first compound; second compound 1 µM
property_name: IC50 (nM)

[
  {
    "compound": "Nc1ccccc1NC(=O)c1ccc(CNC(=O)OCc2cccnc2)cc1 + CC(CO)NC(=O)c1cc(-c2ccc(Cl)cc2)nn(-c2cnn(C)c2)c1=O",
    "IC50 [nM]": 195
  }
]

I. CC1COCCN1c1cc(C2(S(C)(=N)=O)CC2)nc(-c2ccnc3[nH]ccc23)n1 (stereo unspecified) + CC(CO)NC(=O)c1cc(-c2ccc(Cl)cc2)nn(-c2cnn(C)c2)c1=O
II. NS(=O)(=O)OCC1CC(n2ccc3c(NC4CCc5ccccc54)ncnc32)CC1O (stereo unspecified) + Cc1ccccc1N=Nc1ccc(NC(=O)c2ccnn2C)c(C)c1
III. Nc1ccccc1NC(=O)c1ccc(CNC(=O)OCc2cccnc2)cc1 + Cc1ccccc1N=Nc1ccc(NC(=O)c2ccnn2C)c(C)c1
*Q* Let's sort these by IC50, smallest first. Go ahead? Response field: labels, in requested order.
*A* II, III, I

###

Tested on: 292921-168-R-J2-PDC complex spheroid growth
Experiment: Anticancer human tumor 292921-168-R-J2-PDC cell line growth inhibition [AhR];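 also: spheroids exposed to compounds for seven days after three days of growth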
Conditions: second compound 10 µM; first compound 0.3 µM; stronger effect = lower value
This listing pairs molecules with measured viability, T/C.
Your answer is read as %, so omit the unit and give the number.

Example results:
[
  {
    "molecule": "CCN(c1cc(-c2ccc(CN3CCOCC3)cc2)cc(C(=O)NCc2c(C)cc(C)[nH]c2=O)c1C)C1CCOCC1 + CC(CO)NC(=O)c1cc(-c2ccc(Cl)cc2)nn(-c2cnn(C)c2)c1=O",
    "units_label": "%",
    "quantitative_result": 76.2
  },
  {
    "molecule": "CCc1c2c(nc3ccc(O)cc13)-c1cc3c(c(=O)n1C2)COC(=O)[C@]3(O)CC + Cc1cncc(-c2nc(NCCc3c[nH]c4ccccc34)c3ncn(C(C)C)c3n2)c1",
    "units_label": "%",
    "quantitative_result": 6.16
  },
  {
    "molecule": "CCN(c1cc(-c2ccc(CN3CCOCC3)cc2)cc(C(=O)NCc2c(C)cc(C)[nH]c2=O)c1C)C1CCOCC1 + Cc1ccccc1N=Nc1ccc(NC(=O)c2ccnn2C)c(C)c1",
    "units_label": "%",
    "quantitative_result": 57.4
  },
  {
    "molecule": "O=C(C=Cn1cnc(-c2cc(C(F)(F)F)cc(C(F)(F)F)c2)n1)NNc1cnccn1 + Cc1cncc(-c2nc(NCCc3c[nH]c4ccccc34)c3ncn(C(C)C)c3n2)c1",
    "units_label": "%",
    "quantitative_result": 38.7
  },
  {
    "molecule": "CCN(c1cc(-c2ccc(CN3CCOCC3)cc2)cc(C(=O)NCc2c(C)cc(C)[nH]c2=O)c1C)C1CCOCC1 + Cc1cncc(-c2nc(NCCc3c[nH]c4ccccc34)c3ncn(C(C)C)c3n2)c1",
    "units_label": "%",
    "quantitative_result": 49.3
  }
]

What the record says about CCc1c2c(nc3ccc(O)cc13)-c1cc3c(c(=O)n1C2)COC(=O)[C@]3(O)CC + Cc1ccccc1N=Nc1ccc(NC(=O)c2ccnn2C)c(C)c1 : viability, T/C is 3.01

The value of viability, T/C measured for the molecule CCc1c2c(nc3ccc(O)cc13)-c1cc3c(c(=O)n1C2)COC(=O)[C@]3(O)CC + CC(CO)NC(=O)c1cc(-c2ccc(Cl)cc2)nn(-c2cnn(C)c2)c1=O turned out to be 4.4

The molecule listed as Nc1ncn(C2CC(O)C(CO)S2)c(=O)n1 (configuration not stated) + Cc1ccccc1N=Nc1ccc(NC(=O)c2ccnn2C)c(C)c1 has a reported viability, T/C of 57.1

For reference, reported viability, T/C for CC(C)CC(NC(=O)C(Cc1ccccc1)NC(=O)c1cnccn1)B(O)O (configuration not stated) + Cc1cncc(-c2nc(NCCc3c[nH]c4ccccc34)c3ncn(C(C)C)c3n2)c1 stands at 0.51

Looking up Nc1ncn(C2CC(O)C(CO)S2)c(=O)n1 (configuration not stated) + CC(CO)NC(=O)c1cc(-c2ccc(Cl)cc2)nn(-c2cnn(C)c2)c1=O , I found its viability, T/C recorded as 60.5

Documented viability, T/C of O=C(C=Cn1cnc(-c2cc(C(F)(F)F)cc(C(F)(F)F)c2)n1)NNc1cnccn1 + Cc1ccccc1N=Nc1ccc(NC(=O)c2ccnn2C)c(C)c1 : 29.1

Sure, the documented viability, T/C for CC(C)CC(NC(=O)C(Cc1ccccc1)NC(=O)c1cnccn1)B(O)O (configuration not stated) + CC(CO)NC(=O)c1cc(-c2ccc(Cl)cc2)nn(-c2cnn(C)c2)c1=O is 2.01

###

Test system: 292921-168-R-J2-PDC complex spheroid growth
Experiment: Anticancer human tumor 292921-168-R-J2-PDC cell line growth inhibition [AhR];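 also: spheroids exposed to compounds for seven days after three days of growth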
Settings: curve of first compound; second compound 3.16 µM
property_name: IC50

Worked cases, answers included:
[
  {
    "compound": "CC(C)c1c(-c2ccccc2)nc2c(C#N)c[nH]n2c1=O + Cc1cncc(-c2nc(NCCc3c[nH]c4ccccc34)c3ncn(C(C)C)c3n2)c1",
    "target": "292921-168-R-J2-PDC complex spheroid growth",
    "IC50": "> 10000 nM"
  },
  {
    "compound": "COc1cccc2c1C(=O)c1c(O)c3c(c(O)c1C2=O)CC(O)(C(=O)CO)CC3OC1CC(N)C(O)C(C)O1 (stereo unspecified) + CC(CO)NC(=O)c1cc(-c2ccc(Cl)cc2)nn(-c2cnn(C)c2)c1=O",
    "target": "292921-168-R-J2-PDC complex spheroid growth",
    "IC50": "< 31.6 nM"
  },
  {
    "compound": "CC[C@@]1(O)C(=O)OCc2c1cc1n(c2=O)Cc2cc3c(CN(C)C)c(O)ccc3nc2-1 + CC(CO)NC(=O)c1cc(-c2ccc(Cl)cc2)nn(-c2cnn(C)c2)c1=O",
    "target": "292921-168-R-J2-PDC complex spheroid growth",
    "IC50": "25.5 nM"
  }
]

// IC50 (292921-168-R-J2-PDC complex spheroid growth) for CCN(c1cc(-c2ccc(CN3CCOCC3)cc2)cc(C(=O)NCc2c(C)cc(C)[nH]c2=O)c1C)C1CCOCC1 + Cc1ccccc1N=Nc1ccc(NC(=O)c2ccnn2C)c(C)c1 = > 3000 nM

Query CC(C)CC(NC(=O)C(Cc1ccccc1)NC(=O)c1cnccn1)B(O)O (stereo unspecified) + CC(CO)NC(=O)c1cc(-c2ccc(Cl)cc2)nn(-c2cnn(C)c2)c1=O on 292921-168-R-J2-PDC complex spheroid growth; IC50 returned: 5.29 nM

Hey, 292921-168-R-J2-PDC complex spheroid growth data for Nc1ncn(C2CC(O)C(CO)O2)c(=O)n1 (stereo unspecified) + CC(CO)NC(=O)c1cc(-c2ccc(Cl)cc2)nn(-c2cnn(C)c2)c1=O : IC50 came out at > 1000 nM
